- Test system: K4 kissing-loop RNA reporter;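 also: bound reporter read as fluorescence of individual clusters on recovered sequencing chips by microscopy, with normalized cluster intensities fitted with a binding model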
- Experiment Notes: apparent KD of K4 kissing-loop reporter; higher = weaker reporter binding
- Run Conditions: Eterna round: R107; input ligand: tryptophan 2.4 mM
Give true (1) when the value for apparent KD of K4 kissing-loop reporter is at least 200 nM. Give false (0) when it is less.

Record excerpt, results attached:
INSERT INTO measurements (seq_string, answer_label) VALUES
  ('AAGGGCUAGGCGGCCGCCACUGGUCGUGUACACAUACGAACCAGUGAUGUUGGUAUUGUAUGCGACAGGACCGGGCCUAGCCGAA [Exclusion - Tryptophan B (Freestyle 27)]', 'true (1)'),
  ('GCAUGAUAGUAAGGAUAUAGAUAAUCCUUAUAUAUAUCGAGUGAUGUUCGAUGUGCCAAGGUACAUCUAGAAGGUACUGUAAGGU [Same State FMN B GF 17]', 'true (1)'),
  ('UGUCAUUGGUCGGCCGCCACUAGAAGGUCAAAGACCAUGGAGUGAUGUUCUAAGACGAAAGUCACUAGGACCGGGACCGAUGACU [TrypBS 5 #SwitchBubble #K4Middle]', 'true (1)'),
  ('AAAUAUUCGAGUGAUGUUCGAUAAAUUUCAGAGGAUAUGCUUAAAAGCAGAAGGCUGUAUUUCUAUUUGUUAUGAAAUUUUAUAA [JR_ExcFMNA_Sub003]', 'false (0)');

For the next question, use this sequence.
Please indicate if the recorded apparent KD of K4 kissing-loop reporter for AGUACGGACGCGGCCGCCACUCAGAAGAAGACGGUAGUGAUGUUACUGAUGGUGAGAACAAUAAAGAGGACCGGGUGUCGUGCAA [#06 K4 Tryptophan B Same State] meets or exceeds 200 nM.
true (1)

* * *

Give apparent KD of MS2 coat protein for every item shown.
- Test system: MS2 coat protein
- Experiment Notes: apparent KD of MS2 coat protein; designed switch direction (-1 OFF switch, 1 ON switch): -1; higher = weaker reporter binding
- Run Conditions: Eterna round: R95; input ligand: microRNA oligo, concentration not stated
Numbers only, in nM.

Consider the worked cases shown below.
INSERT INTO assay_data (seq_string, result_value) VALUES
  ('GGUCGGCGAGGAUAUACAUGAGGAUCACCCAUGUGAUAGAGUGCACGAAAACGUGUACGUAGAAGGCGCUGACG [Mat - Exclusion 3 - Mod of JL D96] (puzzle: Exclusion 3)', 11),
  ('UUUUUUUUUGUGAGGAUAUACUUUUUUUUUUUUUUGUAGAAGGCACAUGAGGAUCACCCAUGUUUUUUUUUCUC [JR_BME4_Sub029] (puzzle: Brourd''s mod of Exclusion 4)', 13.2),
  ('ACAAGCGAAAGGCUCGUCUUAUUUUUGUAGAGGUUCUAAACAUGAGGAUCACCCAUGUAGUGGUUAUGGUGGAGGUA [JR_SV3TOV2_Sub070] (puzzle: Sensor v3, turn-off variant 2)', 64.4),
  ('AUGUGGGUACGAAGGUGUAGAUUGAGCGUACGUUCUGGAACAUGAGGAUCACCCAUGUCGCUUUUUGCUCGUCUUAU [JR_SV3TOV2_Sub035] (puzzle: Sensor v3, turn-off variant 2)', 47.8);

Next:
Please look at AGUAACUAUCACGAAAGUGAUAGUUACAAUAGCAAGUGAACAUGAGGAUCACCCAUGUCCUCAUUUGCUCGUCUUAU [Sensor 3 - 20] (puzzle: Sensor v3, turn-off variant 2) and tell me its recorded apparent KD of MS2 coat protein on MS2 coat protein.
632
